Measured values drawn from ChEMBL document CHEMBL6127043 for this set.

- procedureDetails: Cytotoxicity against human WRL68 cells assessed as reduction in cell viability incubated for 72 hrs by MTT assay
- Format: toxicity, cell-based

molecule	IC50 at 72 h, µM
CCOC(=O)c1nn(CCNc2ccnc3cc(Cl)ccc23)c2c1C(c1ccco1)C(C#N)=C(N)O2 (stereo not drawn)	47.6
CCOC(=O)c1nn(CCNc2ccnc3cc(Cl)ccc23)c2c1C(c1ccc(Br)cc1)C(C#N)=C(N)O2 (stereo not drawn)	5.85
CCOC(=O)c1nn(CCNc2ccnc3cc(Cl)ccc23)c2c1C(c1ccccc1OC)C(C#N)=C(N)O2 (stereo not drawn)	26.1

* * *

Reported values of selectivity ratio for individual entries
- procedureDetails: Selectivity index, ratio of IC50 for cytotoxicity against human WRL68 cells to IC50 for antimalarial activity against Plasmodium falciparum 3D7 infected in erythrocytes
- Assay type: toxicity, cell-based
- conditionParameters: WRL68 cells versus Plasmodium falciparum 3D7 in erythrocytes, read-out: Ratio IC50
parameter: selectivity ratio

molecule	censoringOperator	reported
CCOC(=O)c1nn(CCNc2ccnc3cc(Cl)ccc23)c2c1C(c1ccc(O)cc1O)C(C#N)=C(N)O2 (stereo not drawn)	=	1220
CCOC(=O)c1nn(CCNc2ccnc3cc(Cl)ccc23)c2c1C(c1ccc(Br)cc1)C(C#N)=C(N)O2 (stereo not drawn)	=	178
CCOC(=O)c1nn(CCNc2ccnc3cc(Cl)ccc23)c2c1C(c1c(O)ccc3ccccc13)C(C#N)=C(N)O2 (stereo not drawn)	=	22
CCOC(=O)c1nn(CCNc2ccnc3cc(Cl)ccc23)c2c1C(c1ccc(C(=O)O)cc1)C(C#N)=C(N)O2 (stereo not drawn)	=	2280
CCOC(=O)c1nn(CCNc2ccnc3cc(Cl)ccc23)c2c1C(c1cccc(O)c1)C(C#N)=C(N)O2 (stereo not drawn)	=	3960
CCOC(=O)c1nn(CCNc2ccnc3cc(Cl)ccc23)c2c1C(c1ccccc1)C(C#N)=C(N)O2 (stereo not drawn)	=	4360
CCOC(=O)c1nn(CCNc2ccnc3cc(Cl)ccc23)c2c1C(c1ccc(C#N)cc1)C(C#N)=C(N)O2 (stereo not drawn)	>	9450
CCOC(=O)c1nn(CCNc2ccnc3cc(Cl)ccc23)c2c1C(c1ccc(OC)cc1)C(C#N)=C(N)O2 (stereo not drawn)	=	6220

* * *

- procedureDetails: Selectivity index, ratio of IC50 for cytotoxicity against African green monkey Vero cells to IC50 for antimalarial activity against Plasmodium falciparum W2
- Assay type: toxicity, cell-based
- conditionParameters: Vero cells versus Plasmodium falciparum W2, read-out: Ratio IC50
parameter: selectivity ratio

smilesText	reported
O=C1c2ccc(N3CCN(CCO)CC3)cc2C(=O)N1CCCNc1ccnc2cc(Cl)ccc12	> 4200

* * *

Reported values of IC50 at 72 h for individual entries
- procedureDetails: Cytotoxicity against human WRL68 cells assessed as reduction in cell viability incubated for 72 hrs by MTT assay
- Assay type: toxicity, cell-based

compound	censoringOperator	IC50 at 72 h [µM]
CCOC(=O)c1nn(CCNc2ccnc3cc(Cl)ccc23)c2c1C(c1ccc(O)cc1)C(C#N)=C(N)O2 (configuration not stated)	=	48.6
CCOC(=O)c1nn(CCNc2ccnc3cc(Cl)ccc23)c2c1C(c1ccc(O)cc1O)C(C#N)=C(N)O2 (configuration not stated)	=	23.2
CCOC(=O)c1nn(CCNc2ccnc3cc(Cl)ccc23)c2c1C(c1cccc(OCC)c1)C(C#N)=C(N)O2 (configuration not stated)	=	20.9
CCOC(=O)c1nn(CCNc2ccnc3cc(Cl)ccc23)c2c1C(c1ccc(C(=O)O)cc1)C(C#N)=C(N)O2 (configuration not stated)	=	86.5
CCN(CC)CCCC(C)Nc1ccnc2cc(Cl)ccc12 (configuration not stated) [CHLOROQUINE PHOSPHATE]	=	60.6
CCOC(=O)c1nn(CCNc2ccnc3cc(Cl)ccc23)c2c1C(c1ccccn1)C(C#N)=C(N)O2 (configuration not stated)	=	90.5
CCOC(=O)c1nn(CCNc2ccnc3cc(Cl)ccc23)c2c1C(c1cccc(O)c1)C(C#N)=C(N)O2 (configuration not stated)	=	68.6
CCOC(=O)c1nn(CCNc2ccnc3cc(Cl)ccc23)c2c1C(c1ccccc1)C(C#N)=C(N)O2 (configuration not stated)	=	81.5
CCOC(=O)c1nn(CCNc2ccnc3cc(Cl)ccc23)c2c1C(c1ccc(O)c(Br)c1)C(C#N)=C(N)O2 (configuration not stated)	=	61.6
CCOC(=O)c1nn(CCNc2ccnc3cc(Cl)ccc23)c2c1C(c1ccc(OCC)cc1)C(C#N)=C(N)O2 (configuration not stated)	=	6.98
CCOC(=O)c1nn(CCNc2ccnc3cc(Cl)ccc23)c2c1C(c1ccc([N+](=O)[O-])cc1)C(C#N)=C(N)O2 (configuration not stated)	=	56.9
CCOC(=O)c1nn(CCNc2ccnc3cc(Cl)ccc23)c2c1C(c1ccc(C#N)cc1)C(C#N)=C(N)O2 (configuration not stated)	>	183
CCOC(=O)c1nn(CCNc2ccnc3cc(Cl)ccc23)c2c1C(c1ccc(Cl)cc1)C(C#N)=C(N)O2 (configuration not stated)	=	12.1
CCOC(=O)c1nn(CCNc2ccnc3cc(Cl)ccc23)c2c1C(c1cccc([N+](=O)[O-])c1)C(C#N)=C(N)O2 (configuration not stated)	=	35.4
CCOC(=O)c1nn(CCNc2ccnc3cc(Cl)ccc23)c2c1C(c1ccc(OC)cc1)C(C#N)=C(N)O2 (configuration not stated)	=	131
CCOC(=O)c1nn(CCNc2ccnc3cc(Cl)ccc23)c2c1C(c1cccs1)C(C#N)=C(N)O2 (configuration not stated)	=	59.5
CCOC(=O)c1nn(CCNc2ccnc3cc(Cl)ccc23)c2c1C(c1c(O)ccc3ccccc13)C(C#N)=C(N)O2 (configuration not stated)	=	6.69

* * *

- procedureDetails: Selectivity index, ratio of IC50 for cytotoxicity against human WRL68 cells to IC50 for antimalarial activity against Plasmodium falciparum K1 infected in erythrocytes
- Format: toxicity, cell-based
- conditionParameters: WRL68 cells versus Plasmodium falciparum K1 in erythrocytes, read-out: Ratio IC50
# MET = selectivity ratio below 200 (exclusive); NOT MET = selectivity ratio at/above 200

compound	className
CCOC(=O)c1nn(CCNc2ccnc3cc(Cl)ccc23)c2c1C(c1cccs1)C(C#N)=C(N)O2 (centres undefined)	NOT MET
CCOC(=O)c1nn(CCNc2ccnc3cc(Cl)ccc23)c2c1C(c1cccc(O)c1)C(C#N)=C(N)O2 (centres undefined)	MET
CCOC(=O)c1nn(CCNc2ccnc3cc(Cl)ccc23)c2c1C(c1ccc(Cl)cc1)C(C#N)=C(N)O2 (centres undefined)	NOT MET
CCOC(=O)c1nn(CCNc2ccnc3cc(Cl)ccc23)c2c1C(c1c(O)ccc3ccccc13)C(C#N)=C(N)O2 (centres undefined)	NOT MET
CCOC(=O)c1nn(CCNc2ccnc3cc(Cl)ccc23)c2c1C(c1ccc(OCC)cc1)C(C#N)=C(N)O2 (centres undefined)	MET
CCOC(=O)c1nn(CCNc2ccnc3cc(Cl)ccc23)c2c1C(c1ccc(C(=O)O)cc1)C(C#N)=C(N)O2 (centres undefined)	NOT MET
CCOC(=O)c1nn(CCNc2ccnc3cc(Cl)ccc23)c2c1C(c1cccc(OCC)c1)C(C#N)=C(N)O2 (centres undefined)	NOT MET
CCOC(=O)c1nn(CCNc2ccnc3cc(Cl)ccc23)c2c1C(c1ccc(C#N)cc1)C(C#N)=C(N)O2 (centres undefined)	NOT MET
CCOC(=O)c1nn(CCNc2ccnc3cc(Cl)ccc23)c2c1C(c1ccc([N+](=O)[O-])cc1)C(C#N)=C(N)O2 (centres undefined)	MET
CCOC(=O)c1nn(CCNc2ccnc3cc(Cl)ccc23)c2c1C(c1ccc(O)cc1)C(C#N)=C(N)O2 (centres undefined)	MET
CCOC(=O)c1nn(CCNc2ccnc3cc(Cl)ccc23)c2c1C(c1ccccc1OC)C(C#N)=C(N)O2 (centres undefined)	MET
CCOC(=O)c1nn(CCNc2ccnc3cc(Cl)ccc23)c2c1C(c1ccc(O)c(Br)c1)C(C#N)=C(N)O2 (centres undefined)	NOT MET
CCOC(=O)c1nn(CCNc2ccnc3cc(Cl)ccc23)c2c1C(c1ccc(O)cc1O)C(C#N)=C(N)O2 (centres undefined)	MET
CCOC(=O)c1nn(CCNc2ccnc3cc(Cl)ccc23)c2c1C(c1cccc([N+](=O)[O-])c1)C(C#N)=C(N)O2 (centres undefined)	NOT MET
CCOC(=O)c1nn(CCNc2ccnc3cc(Cl)ccc23)c2c1C(c1ccco1)C(C#N)=C(N)O2 (centres undefined)	NOT MET
CCOC(=O)c1nn(CCNc2ccnc3cc(Cl)ccc23)c2c1C(c1ccccn1)C(C#N)=C(N)O2 (centres undefined)	NOT MET
CCOC(=O)c1nn(CCNc2ccnc3cc(Cl)ccc23)c2c1C(c1ccc(OC)cc1)C(C#N)=C(N)O2 (centres undefined)	NOT MET
CCOC(=O)c1nn(CCNc2ccnc3cc(Cl)ccc23)c2c1C(c1ccc(Br)cc1)C(C#N)=C(N)O2 (centres undefined)	NOT MET

* * *

- Tested on: Plasmodium falciparum
- procedureDetails: Antimalarial activity against chloroquine-resistant ring stage Plasmodium falciparum K1 infected in erythrocytes assessed as reduction in parasite growth measured at 48 hrs interval by Giemsa staining based microscopic analysis
- Format: functional, organism-based
- conditionParameters: K1, Erythrocyte
pIC50: −log10 of the molar value.

compound	pIC50
CCOC(=O)c1nn(CCNc2ccnc3cc(Cl)ccc23)c2c1C(c1cccs1)C(C#N)=C(N)O2 (centres undefined)	7.43
CCOC(=O)c1nn(CCNc2ccnc3cc(Cl)ccc23)c2c1C(c1ccc(C#N)cc1)C(C#N)=C(N)O2 (centres undefined)	7.43
CCOC(=O)c1nn(CCNc2ccnc3cc(Cl)ccc23)c2c1C(c1c(O)ccc3ccccc13)C(C#N)=C(N)O2 (centres undefined)	7.70
CCOC(=O)c1nn(CCNc2ccnc3cc(Cl)ccc23)c2c1C(c1cccc(OCC)c1)C(C#N)=C(N)O2 (centres undefined)	7.59
CCOC(=O)c1nn(CCNc2ccnc3cc(Cl)ccc23)c2c1C(c1ccc(OCC)cc1)C(C#N)=C(N)O2 (centres undefined)	7.07
CCOC(=O)c1nn(CCNc2ccnc3cc(Cl)ccc23)c2c1C(c1ccccc1)C(C#N)=C(N)O2 (centres undefined)	6.38
CCOC(=O)c1nn(CCNc2ccnc3cc(Cl)ccc23)c2c1C(c1ccc(O)c(Br)c1)C(C#N)=C(N)O2 (centres undefined)	6.63
CCOC(=O)c1nn(CCNc2ccnc3cc(Cl)ccc23)c2c1C(c1ccccc1OC)C(C#N)=C(N)O2 (centres undefined)	6.23
CCOC(=O)c1nn(CCNc2ccnc3cc(Cl)ccc23)c2c1C(c1ccc(C(=O)O)cc1)C(C#N)=C(N)O2 (centres undefined)	6.68
CCOC(=O)c1nn(CCNc2ccnc3cc(Cl)ccc23)c2c1C(c1ccc(O)cc1O)C(C#N)=C(N)O2 (centres undefined)	6.60
CCOC(=O)c1nn(CCNc2ccnc3cc(Cl)ccc23)c2c1C(c1ccc([N+](=O)[O-])cc1)C(C#N)=C(N)O2 (centres undefined)	6.53
CCOC(=O)c1nn(CCNc2ccnc3cc(Cl)ccc23)c2c1C(c1ccc(Cl)cc1)C(C#N)=C(N)O2 (centres undefined)	7.32
CCOC(=O)c1nn(CCNc2ccnc3cc(Cl)ccc23)c2c1C(c1ccc(Br)cc1)C(C#N)=C(N)O2 (centres undefined)	7.72
CCOC(=O)c1nn(CCNc2ccnc3cc(Cl)ccc23)c2c1C(c1ccccn1)C(C#N)=C(N)O2 (centres undefined)	7.62
CCOC(=O)c1nn(CCNc2ccnc3cc(Cl)ccc23)c2c1C(c1ccc(OC)cc1)C(C#N)=C(N)O2 (centres undefined)	6.60
CCOC(=O)c1nn(CCNc2ccnc3cc(Cl)ccc23)c2c1C(c1cccc([N+](=O)[O-])c1)C(C#N)=C(N)O2 (centres undefined)	6.97
CCOC(=O)c1nn(CCNc2ccnc3cc(Cl)ccc23)c2c1C(c1ccc(O)cc1)C(C#N)=C(N)O2 (centres undefined)	5.56
CCOC(=O)c1nn(CCNc2ccnc3cc(Cl)ccc23)c2c1C(c1ccco1)C(C#N)=C(N)O2 (centres undefined)	6.68
CCOC(=O)c1nn(CCNc2ccnc3cc(Cl)ccc23)c2c1C(c1cccc(O)c1)C(C#N)=C(N)O2 (centres undefined)	5.87
